Test system: UACC-62 melanoma
Test: NCI tumour cell line growth inhibition, 48 h
readout.type: TGI

As a guide, the following entries are already answered.
COC12C=C/C(=C(/C(=O)OCc3cncnc3)C(=O)CCCCCCCCC3(OC)C=C/C(=C(/C(=O)OCc4cncnc4)C(=O)CCCCCCCC1)O3)O2 | 1.21 µM
Cc1cc(-c2cccc3ccccc23)c(C#N)c(=S)n1C1OC(CO)C(O)C(O)C1O (stereo unspecified) | > 100 µM
c1ccc(-c2nnc(-c3ccccn3)c3c2C[C@@H]2C[C@@H]4Cc5c(-c6ccccn6)nnc(-c6ccccn6)c5[C@@H]4[C@H]32)nc1 | > 100 µM
C/C(N=NS(=O)(=O)c1ccccc1)=C1\C=CC=CN1O | > 100 µM
O=C(O)CCCSC(=O)Nc1ccc(N=Nc2ccccc2)cc1 | > 100 µM

# ---- query compound ----
(Q) Look at this compound and give its reported TGI. CN(O)C(=O)SCC(NC(=O)CCC(N)C(=O)O)C(=O)NCC(=O)O (stereo unspecified)
(A) > 2000 µM
